Assay: Half life period of the compound
Format: ADME
Reported Endpoint: half-life (h)

N=C(N)c1ccc2[nH]cc(CC(=O)Nc3ccc(-c4ccccc4S(N)(=O)=O)cc3)c2c1
1.22
N=C(N)c1ccc2ncn(CC(=O)Nc3ccc(-c4ccccc4S(N)(=O)=O)cc3)c2c1
0.96

====

Experiment: Distribution volume at steady state in dog
Type: ADME, organism-based, Canis lupus familiaris
Settings: in vivo, read-out: Vdss
Reported Endpoint: Vd (L/kg)

1. N=C(N)c1ccc2[nH]cc(CC(=O)Nc3ccc(-c4ccccc4S(N)(=O)=O)cn3)c2c1
2. N=C(N)c1ccc2[nH]cc(CC(=O)Nc3ccc(-c4ccccc4S(N)(=O)=O)cc3Br)c2c1
I need your help: which of the pair 1 , 2 has higher Vd? Label of pick, please. 1
(1: 1.9 L/kg, 2: 0.67 L/kg)

P. N=C(N)c1ccc2[nH]cc(CC(=O)Nc3ccc(-c4ccccc4S(N)(=O)=O)cc3F)c2c1
Q. N=C(N)c1ccc2[nH]cc(CC(=O)Nc3ccc(-c4ccccc4S(N)(=O)=O)cc3Cl)c2c1
Between the two listed entries P and Q , which has its Vd at the higher number? Select an item and report its label. Q

====

Test: plasma clearance in dog
Type: ADME, organism-based, Canis lupus familiaris
Reported Endpoint: clearance (mL/min/kg)

N=C(N)c1ccc2[nH]cc(CC(=O)Nc3ccc(-c4ccccc4S(N)(=O)=O)cc3)c2c1
20.3
N=C(N)c1ccc2[nH]cc(CC(=O)Nc3ccc(-c4ccccc4S(N)(=O)=O)cc3Br)c2c1
22.3
N=C(N)c1ccc2[nH]cc(CC(=O)Nc3ccc(-c4ccccc4S(N)(=O)=O)cc3Cl)c2c1
50

1. N=C(N)c1ccc2[nH]cc(CC(=O)Nc3ccc(-c4ccccc4S(N)(=O)=O)cn3)c2c1
2. N=C(N)c1ccc2[nH]cc(CC(=O)Nc3ccc(-c4ccccc4S(N)(=O)=O)cc3F)c2c1
// compare: 1 vs 2 , metric clearance, want the smaller Lab log: write the label of the selected item as the result. 2
(2: 18.3 mL/min/kg, 1: 61.7 mL/min/kg)

====

Target: Coagulation factor X (Oryctolagus cuniculus, UniProt O19045)
Sequence (O19045 41-180 limits assumed): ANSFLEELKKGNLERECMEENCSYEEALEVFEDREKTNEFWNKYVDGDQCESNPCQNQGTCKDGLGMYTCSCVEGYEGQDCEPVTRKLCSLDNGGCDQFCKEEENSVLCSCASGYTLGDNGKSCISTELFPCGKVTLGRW
Sequence (O19045 233-490 limits assumed): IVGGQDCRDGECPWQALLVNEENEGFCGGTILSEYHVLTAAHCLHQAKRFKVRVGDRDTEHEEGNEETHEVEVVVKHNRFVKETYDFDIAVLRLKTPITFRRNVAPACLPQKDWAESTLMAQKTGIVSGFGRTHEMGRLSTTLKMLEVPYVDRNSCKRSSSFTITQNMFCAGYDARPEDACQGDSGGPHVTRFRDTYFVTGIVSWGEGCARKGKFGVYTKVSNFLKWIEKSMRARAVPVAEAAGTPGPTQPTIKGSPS
Experiment: Binding affinity against fXa from rabbit purified enzyme
Reported Endpoint: Ki (nM)
Only the number, expressed in nM, is required.

Answer with the recorded Ki for the molecule listed here: "N=C(N)c1ccc2[nH]cc(CC(=O)Nc3ccc(-c4ccccc4S(N)(=O)=O)cc3)c2c1" 6

====

As a worked illustration, we turn to pKi data collected for UniProtKB P00742.
pKi: −log10 of the molar value.
Reported Endpoint: pKi

1. CCOC(=O)C(CCc1ccc(C(=N)N)cc1)Cn1cnc2ccc(C(=N)N)cc21 (stereo not drawn)
2. N=C(N)c1ccc2[nH]cc(CC(=O)Nc3ccc(-c4ccccc4S(N)(=O)=O)cc3Br)c2c1
3. N=C(N)c1ccc2ncn(CC(=O)Nc3ccc(-c4ccccc4)cc3)c2c1
4. CCNS(=O)(=O)c1ccccc1-c1ccc(NC(=O)Cc2c[nH]c3ccc(C(=N)N)cc23)cc1
5. N=C(N)c1ccc2ncn(CC(=O)Nc3ccc(-c4ccccc4S(N)(=O)=O)cc3)c2c1
Could you list the above compounds by pKi, going from the biggest number down? Answer format: the labels, ordered as requested. 2, 5, 4, 3, 1

====

Biological target: Prothrombin (Homo sapiens)
Reported Endpoint: Ki (nM)

N=C(N)c1ccc2[nH]cc(CC(=O)Nc3ccc(-c4ccccc4S(N)(=O)=O)cn3)c2c1
2100

A. N=C(N)c1ccc2c(c1)C(CC(=O)Nc1ccc(-c3ccccc3S(N)(=O)=O)cc1)CN2 (single isomer, unassigned; (+))
B. N=C(N)c1ccc2[nH]cc(CC(=O)Nc3ccc(-c4ccccc4S(N)(=O)=O)cc3Br)c2c1
Pick one: A or B . Which has the bigger Ki number? Bench note: the answer is the label of the chosen record. A
(A: 1500 nM, B: 200 nM)

====

Target: Coagulation factor X (Homo sapiens)
Sequence (P00742 41-179 limits assumed): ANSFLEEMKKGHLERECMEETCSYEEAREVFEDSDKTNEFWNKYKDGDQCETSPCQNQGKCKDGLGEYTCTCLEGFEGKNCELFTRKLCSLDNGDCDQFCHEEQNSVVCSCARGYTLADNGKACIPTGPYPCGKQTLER
Sequence (P00742 235-488 limits assumed): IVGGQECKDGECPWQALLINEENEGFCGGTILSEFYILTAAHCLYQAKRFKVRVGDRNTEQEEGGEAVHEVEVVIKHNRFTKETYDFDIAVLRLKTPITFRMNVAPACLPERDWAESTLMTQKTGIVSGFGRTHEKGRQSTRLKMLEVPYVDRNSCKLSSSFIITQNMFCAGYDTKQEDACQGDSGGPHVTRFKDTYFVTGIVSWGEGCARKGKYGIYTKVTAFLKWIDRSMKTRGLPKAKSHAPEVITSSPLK
pKi: −log10 of the molar value.
Reported Endpoint: pKi

P. CCOC(=O)C(CCc1cccc(C(=N)N)c1)Cn1cnc2ccc(C(=N)N)cc21 (stereo not drawn)
Q. Cc1cc(-c2ccccc2S(N)(=O)=O)ccc1NC(=O)Cc1c[nH]c2ccc(C(=N)N)cc12
R. CCOC(=O)C(CCc1ccc(C(=N)N)cc1)Cn1cnc2cc(C(=N)N)ccc21 (stereo not drawn)
Arrange the above in rising order of pKi. The labels, placed in the requested order, form the answer. R, P, Q
